Target: TbKKT19 (Trypanosoma brucei, UniProt Q382T9)
Construct: gene Tb11.01.4250; recombinant His-tagged, full-length TbKKT19
Sequence (Q382T9 1-484): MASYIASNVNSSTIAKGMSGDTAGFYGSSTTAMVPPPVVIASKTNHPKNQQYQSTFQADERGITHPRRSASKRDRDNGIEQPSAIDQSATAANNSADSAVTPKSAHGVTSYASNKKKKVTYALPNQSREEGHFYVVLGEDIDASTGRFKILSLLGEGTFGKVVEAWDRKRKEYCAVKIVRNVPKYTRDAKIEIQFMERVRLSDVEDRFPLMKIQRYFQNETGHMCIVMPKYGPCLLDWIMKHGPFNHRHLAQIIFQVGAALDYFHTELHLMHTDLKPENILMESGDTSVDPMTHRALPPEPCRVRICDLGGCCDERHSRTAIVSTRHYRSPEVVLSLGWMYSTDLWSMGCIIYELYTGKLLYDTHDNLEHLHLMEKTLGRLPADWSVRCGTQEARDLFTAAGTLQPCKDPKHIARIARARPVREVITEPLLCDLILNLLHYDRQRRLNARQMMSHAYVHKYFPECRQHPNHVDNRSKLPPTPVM
Assay: ADP Hunter Plus kinase assay, 10-point IC50, with technology counterscreen; repurchased and reconfirmed
Type: biochemical
Reported endpoint: pIC50
Entry type: numeric. Quantity: pIC50, the -log10 of concentration in molar units.

INSERT INTO results (compound, reported_endpoint, recorded_measurement) VALUES
  ('CCN(Cc1ccc(/C=C2/C(=O)Nc3ccccc32)o1)S(C)(=O)=O [compound 1]', 'pIC50', 4.72);

We now examine a further compound.
May I ask what pIC50 has been recorded for O=C(Nc1ccc2cn[nH]c2c1)c1c(Cl)cccc1Cl [compound 2] ?
4.83
